System under test: T1, human IL-1RAcP on 293T/17-FR cells (human, UniProt Q9NPH3 21-570)
T1 sequence (looked up): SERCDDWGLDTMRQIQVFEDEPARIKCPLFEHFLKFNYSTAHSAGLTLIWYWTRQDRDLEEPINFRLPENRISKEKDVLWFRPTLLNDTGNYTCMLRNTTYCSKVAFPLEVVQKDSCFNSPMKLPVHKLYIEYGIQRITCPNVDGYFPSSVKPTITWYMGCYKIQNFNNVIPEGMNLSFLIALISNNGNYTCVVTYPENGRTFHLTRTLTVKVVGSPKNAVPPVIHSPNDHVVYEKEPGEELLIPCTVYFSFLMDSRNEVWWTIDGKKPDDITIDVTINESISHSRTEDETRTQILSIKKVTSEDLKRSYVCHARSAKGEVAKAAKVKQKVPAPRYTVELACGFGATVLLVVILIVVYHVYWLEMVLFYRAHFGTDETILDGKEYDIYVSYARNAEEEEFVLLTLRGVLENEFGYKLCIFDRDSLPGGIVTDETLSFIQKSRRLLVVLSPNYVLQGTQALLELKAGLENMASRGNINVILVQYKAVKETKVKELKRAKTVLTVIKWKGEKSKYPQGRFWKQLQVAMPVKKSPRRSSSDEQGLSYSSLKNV
Experiment summary: cell-based or functional assay
Would you mind labelling by functional reporter gene assay (% inhibition), 5 µg/mL mAb? At or over 60% is TRUE, under is FALSE.

Here are 4 binders together with their reported answers.
- Binder: "P013.S.02.B.F05 (antibody, V domains shown, rabbit monoclonal antibody; also called P013.A.00109.B04) VH: RSLEESGGDLVKPGTSLTLTCTASGFSFSGNYYMCWVRQAPGKGLEWIACIVVGSGGNTYYAGWAKRRFTISKTSSTTVTLQMTSLTAADTATYFCASGSYDDYGDYWYFTLWGQGTLVTVSS VL: AIDMTQTPSPASAGVGDTVTINCQASENIYNFLAWYQQKPGHSPKLLIYVASKLASGVPSRFKGSGSGTQFTLTISDVQSDDAATYYCQQTYRYNDGDTAFGGGTEVVVK"
  Label class: "FALSE"
- Binder: "P013.S.01.B.D05 (antibody, V domains shown, rabbit monoclonal antibody; also called P013.A.00085.G03) VH: EQSGGGAEGGLVKPGGSLELYCKASGFSLSSDAWICWVRQAPGKGLEWIGCIYAGSASNTYYATWVNGRFTLSRDIAQSTGCLQLNSLTAADTAMYYCARDRGYDDYGDITRLDLWGQGTLVTVSS VL: ALVLTQTPSPVSAAVGGTVTINCQASEDIYSNLAWFQQKPGQPPKLLIYRASTLASGVPSRFSGSGSGTEFTLTISGLQSDDAATYYCLGVYTYLSDLFFVFGGGTEVVVK"
  Label class: "TRUE"
- Binder: "P013.S.02.B.C03 (antibody, V domains shown, rabbit monoclonal antibody; also called P013.A.00085.G07) VH: QSLEESGGRLVTPGTPLTLTCTVSGIDLSSYAMGWVRQAPGKGLEYIGIISNSGTTYYASWAKGRFTISKTSSTTVDLKMTSPTTEDTATYFCARDRYANTHGIFSLWGQGTLVTVSS VL: DIVMTQTPASVSAPVGGTVTINCQASESIYSDLAWYQQKPGQPPKLLISFVATLESGVPSRFKGSGSGTEFTLTISDLESADAATYYCQCTYGGSGSGNGAAFGGGTEVVVK"
  Label class: "FALSE"
- Binder: "P013.S.01.B.E05 (antibody, V domains shown, rabbit monoclonal antibody; also called P013.A.00086.F02) VH: QSLEESGGDLVKPGASLTLTCTASGISFSSSDFMCWVRQAPGKGLEWIACIYAGSSVSIYYATWAKGRFTISKASSTTVTLQMASLTVADTATYFCARSTGSVGRGFNLWGQGTLVTVSS VL: AQVLTQTPSPVSAAVGGTVTISCQASQSVYNSNHLSWYQQKPGQPPRLLIYSASTLASGVPSRFKGSGSGTQFTLTISGVQSDDAATYYCQGEFSCVSADCIAFGGGTEVVVK"
  Label class: "TRUE"

[in] Confirm if functional reporter gene assay (% inhibition), 5 µg/mL mAb reported for the binder P013.S.01.B.C03 (antibody, V domains shown, rabbit monoclonal antibody; also called P013.A.00133.D11) VH: QSVEESGGRLVTPGTPLTLTCTVSGIDLSNYAMSWVRQAPGKGLEWIGSVISGGSTYYATWARGRFTISKSSTTVDLKMTSLTTEDTATYFCARGCPGYNGDKYTFDLWGPGTLVTVSS VL: AFEMTQTPSSVSEPVGGTVTIKCQASQSIYNYLSWYQQKPGQRPKLLIYRASTLASGVPSRFKGSGSGTEFTLTISGVESADAATYYCQQGATSYDIENPFGGGTEVVVK is 60% or above.
[out] TRUE
